test system: 786-0; test: Growth inhibition of human 786-0 cells after 48 hrs by sulforhodamine B dye-based spectrophotometric assay; assay type: functional; settings: 786-0, 48 h
quantity: GI50 (µM)
# output: bare number, implied unit µM

In the examples that follow, each entry is paired with its recorded GI50.
{"columns": ["smiles structure", "units label", "meas value"],
 "data": [
  ["Cc1ccc(NC(=S)N/N=C/c2c[nH]c3ccccc23)cc1", "µM", 3.99],
  ["Cc1ccc(N2C(=O)CS/C2=N/N=C/c2c[nH]c3ccc(Br)cc23)cc1", "µM", 39.9],
  ["O=C1CS/C(=N/N=C/c2c[nH]c3ccccc23)N1c1cccc2ccccc12", "µM", 62.1]
]}

**Query** Reported GI50, compound `S=C(NCCc1ccccc1)N/N=C/c1c[nH]c2ccc(Br)cc12` : ____
**Result** 7.58

**Query** Sample `O=C1CS/C(=N/N=C/c2c[nH]c3ccc(Br)cc23)N1c1cccc2ccccc12` — what was its GI50?
**Result** 29.1

**Query** Entry `S=C(N/N=C/c1c[nH]c2ccc(Br)cc12)Nc1cccc2ccccc12` : reported GI50 = ?
**Result** 6.56

**Query** Requested field: GI50. Item: `S=C(N/N=C/c1c[nH]c2ccccc12)Nc1cccc2ccccc12`
**Result** 0.25

**Query** Requested field: GI50. Item: `S=C(NCCc1ccccc1)N/N=C/c1c[nH]c2ccccc12`
**Result** 76.3

**Query** Request the reported GI50 associated with `COc1cccc2c1C(=O)c1c(O)c3c(c(O)c1C2=O)C[C@@](O)(C(=O)CO)C[C@@H]3O[C@H]1C[C@H](N)[C@H](O)[C@H](C)O1`
**Result** 0.11

**Query** Query (compound): `Cc1ccc(N2C(=O)CS/C2=N/N=C/c2c[nH]c3ccccc23)cc1` ; field requested: GI50
**Result** 79.1

---

test system: OVCAR-3; test: Growth inhibition of human OVCAR3 cells after 48 hrs by sulforhodamine B dye-based spectrophotometric assay; format: functional; settings: OVCAR-3, 48 h
quantity: GI50 (µM)
// note: answer is a bare numeric in µM

{"columns": ["compound", "units label", "GI50"],
 "data": [
  ["O=C1CS/C(=N/N=C/c2c[nH]c3ccc(Br)cc23)N1c1cccc2ccccc12", "µM", 5.12]
]}

**Query** Find the recorded GI50 belonging to `Cc1ccc(NC(=S)N/N=C/c2c[nH]c3ccccc23)cc1` and report it.
**Result** 3.88

**Query** Sample `Cc1ccc(N2C(=O)CS/C2=N/N=C/c2c[nH]c3ccc(Br)cc23)cc1` — what was its GI50?
**Result** 98.5

**Query** State the recorded GI50 for this entry: `S=C(N/N=C/c1c[nH]c2ccccc12)Nc1cccc2ccccc12`
**Result** 0.21

**Query** Endpoint output: GI50 of `O=C1CS/C(=N/N=C/c2c[nH]c3ccccc23)N1c1cccc2ccccc12` . Value?
**Result** 25.7

**Query** Field request: GI50 | item: COc1cccc2c1C(=O)c1c(O)c3c(c(O)c1C2=O)C[C@@](O)(C(=O)CO)C[C@@H]3O[C@H]1C[C@H](N)[C@H](O)[C@H](C)O1 [DOXORUBICIN]
**Result** 0.22

**Query** State the recorded GI50 for this entry: `S=C(NCCc1ccccc1)N/N=C/c1c[nH]c2ccc(Br)cc12`
**Result** 8.22

**Query** Which measured GI50 value corresponds to `S=C(N/N=C/c1c[nH]c2ccc(Br)cc12)Nc1cccc2ccccc12` ?
**Result** 1.6
